# system.under.test: Human immunodeficiency virus type 1 integrase (Human immunodeficiency virus 1, UniProt Q7ZJM1)
# Sequence (Q7ZJM1 whole entry): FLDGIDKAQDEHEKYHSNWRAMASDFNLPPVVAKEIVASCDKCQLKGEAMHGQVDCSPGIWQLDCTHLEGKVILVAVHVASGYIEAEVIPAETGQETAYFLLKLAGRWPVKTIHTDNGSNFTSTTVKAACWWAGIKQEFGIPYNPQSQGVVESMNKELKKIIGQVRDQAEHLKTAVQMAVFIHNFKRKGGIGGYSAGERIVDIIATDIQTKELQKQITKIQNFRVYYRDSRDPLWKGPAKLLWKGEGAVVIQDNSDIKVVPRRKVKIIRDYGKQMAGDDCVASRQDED
# protocol.text: Inhibition of recombinant HIV-1 integrase stand transfer activity expressed in Escherichia coli BL21(DE3) cells using 32P-labeled DNA substrate after 1 hr by densitometric analysis
Record form. Attribute: pIC50. Fill in for each entry.
Answers are plain numbers, as −log10 of the molar value.

A selection of reference data follows.
• CCOC(=O)c1c(-c2ccc(F)cc2)nc(=O)n(Cc2ccc(C(=O)/C=C(\O)C(=O)O)cc2)c1CC = 5.96
• CCOC(=O)c1c(-c2ccc(OC)cc2)nc(=O)n(Cc2ccc(C(=O)/C=C(\O)C(=O)O)cc2)c1CC = 5.25
• CCOC(=O)c1c(-c2ccccc2)nc(=O)n(Cc2ccc(C(=O)/C=C(\O)C(=O)O)cc2)c1C = 5.62

List the reported pIC50 of each molecule below.
1. CCOC(=O)c1c(-c2ccc(F)cc2)nc(=O)n(Cc2ccc(C(=O)/C=C(\O)C(=O)O)cc2)c1C
2. CCOC(=O)c1c(Cc2ccccc2)nc(=O)n(Cc2ccc(C(=O)/C=C(\O)C(=O)O)cc2)c1C

Reply:
1: 5.89; 2: 6.72

---

# Test system: Vero
# protocol.text: Cytotoxicity against African green monkey Vero cells assessed as reduction in cell growth incubated for 5 days by CellTiter 96 AQueous One Solution cell proliferation assay
# Type: cell-based
# test.parameters: chlorocebus sabaeus, vero, 120 h
quantity.measured: CC50 (µM)
Give bare numbers, in µM.

A selection of reference data follows.
* Cc1cn([C@H]2C[C@H](N=[N+]=[N-])[C@@H](CO)O2)c(=O)[nH]c1=O | 39.5
* CCOC(=O)c1c(CC)nc(SCc2ccc(C(=O)/C=C(\O)C(=O)OC(C)C)cc2)nc1-c1ccc(F)cc1 | 39.5

// next item, CC50 requested
Task item: Would you mind telling me what CC50 value was observed for CCOC(=O)c1c(Cc2ccccc2)nc(=O)n(Cc2ccc(C(=O)/C=C(\O)C(=O)OC(C)C)cc2)c1C ?
Reply: 32.9

---

# system.under.test: Human immunodeficiency virus type 1 integrase (Human immunodeficiency virus 1, UniProt Q7ZJM1)
# protocol.text: Inhibition of recombinant HIV-1 integrase 3'-processing activity expressed in Escherichia coli BL21(DE3) cells using 32P-labeled DNA substrate after 1 hr by densitometric analysis
quantity.measured: pIC50
One number for each entry, as −log10 of the molar value.

List the reported pIC50 of each compound below.
1. CCOC(=O)c1c(Cc2ccccc2)nc(=O)n(Cc2ccc(C(=O)/C=C(\O)C(=O)O)cc2)c1C
2. CCOC(=O)c1c(-c2ccc(OC)cc2)nc(=O)n(Cc2ccc(C(=O)/C=C(\O)C(=O)O)cc2)c1CC
3. CCOC(=O)c1c(-c2ccc(OC)cc2)nc(=O)n(Cc2ccc(C(=O)/C=C(\O)C(=O)O)cc2)c1-c1ccccc1
4. CCOC(=O)c1c(-c2ccccc2)nc(=O)n(Cc2ccc(C(=O)/C=C(\O)C(=O)O)cc2)c1C(C)C
5. CCOC(=O)c1c(-c2ccc(F)cc2)nc(=O)n(Cc2ccc(C(=O)/C=C(\O)C(=O)O)cc2)c1C
6. CCOC(=O)c1c(-c2ccc(F)cc2)nc(=O)n(Cc2ccc(C(=O)/C=C(\O)C(=O)O)cc2)c1-c1ccccc1

Reply:
[4.77, 4.14, 4.76, 4.43, 4.76, 4.78]

Numbers sourced from ChEMBL document CHEMBL3734651.
